Where these numbers come from: ChEMBL document CHEMBL1123761

# Subject Of Test: Dipeptidase 1 (Sus scrofa)
# Sequence (P22412 whole entry): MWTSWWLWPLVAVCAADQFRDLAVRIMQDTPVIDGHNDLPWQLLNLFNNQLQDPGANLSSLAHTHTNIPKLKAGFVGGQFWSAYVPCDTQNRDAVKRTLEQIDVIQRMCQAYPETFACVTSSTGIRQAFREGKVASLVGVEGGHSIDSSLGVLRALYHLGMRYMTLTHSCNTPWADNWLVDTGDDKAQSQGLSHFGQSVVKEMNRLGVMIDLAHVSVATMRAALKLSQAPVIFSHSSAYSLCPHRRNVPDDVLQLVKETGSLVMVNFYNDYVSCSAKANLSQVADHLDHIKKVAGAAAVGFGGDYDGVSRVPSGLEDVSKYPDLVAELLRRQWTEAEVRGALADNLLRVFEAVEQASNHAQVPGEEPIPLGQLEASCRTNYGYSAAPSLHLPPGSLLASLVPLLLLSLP
# Method Notes: Inhibitory activity against beta-lactamase renal dipeptidase
Measured Parameter: Ki (nM)

Compound	Ki [nM]
C/C=C(\NC(=O)C1C(C)C1(C)C)C(=O)O (stereo not given)	7200
C/C=C(\NC(=O)CC(C)(C)C)C(=O)O	20000
C/C=C(\NC(=O)C(C)C(C)C)C(=O)O (stereo not given)	3300
C/C=C(\NC(=O)c1ccccc1Cl)C(=O)O	25000

1: COC(=O)CSCCC/C=C(\NC(=O)C1CC1(C)C)C(=O)O (stereo not given)
2: CN(C)CCCCC/C=C(\NC(=O)C1CC1(C)C)C(=O)O (stereo not given)
// task: argmin of Ki over [ 1 , 2 ] Provide the label of your selected option as the answer. 1
(1: 280 nM, 2: 1280 nM)

A: CC1(C)CC1C(=O)N/C(=C\CCCCCNCP(=O)(O)O)C(=O)O (stereo not given)
B: C/C=C(\NC(=O)[C@@H]1C[C@H]1C(C)(C)C)C(=O)O
Between the entries labeled A and B , whose measured Ki is lower? # respond with the chosen item's label A
(A: 400 nM, B: 6500 nM)

1: CC1(C)CC1C(=O)N/C(=C\CCCCCNC(N)=O)C(=O)O (stereo not given)
2: CC1(C)CC1C(=O)N/C(=C\CCCCSc1ncccc1O)C(=O)O (stereo not given)
1 or 2 : whose Ki is greater? Use the label to indicate which entry you chose. 1

----------
# Subject Of Test: UniProtKB P22412
# Method Notes: Inhibitory activity against beta-lactamase renal dipeptidase
pKi: −log10 of the molar value.
Measured Parameter: pKi

Compound	Measured Parameter	Reported Value
C=CCCCCCCCCC(=O)N/C(=C\C)C(=O)O	pKi	4.47

a: CC1(C)CC1C(=O)N/C(=C\CCCCCNC1=NCCN1)C(=O)O (stereo not given)
b: C/C=C(\NC(=O)CCCCCNC(=O)CC)C(=O)O
c: CCCCCCCC/C=C(\NC(=O)C1CC1(C)C)C(=O)O (stereo not given)
Ranking field: pKi; order: falling. # list labels per requested ordering c, a, b
(c: 6.96, a: 6.08, b: 4.39)

----------
# Subject Of Test: Dipeptidase 1 (Sus scrofa, UniProt P22412)
# Method Notes: Inhibitory activity against beta-lactamase renal dipeptidase
Measured Parameter: Ki (nM)

Molecule	Ki (nM)
C=CCC/C=C(\NC(=O)C1CC1(C)C)C(=O)O (stereo not drawn)	230
CC1(C)CC1C(=O)N/C(=C\CCCCC[n+]1ccccc1)C(=O)[O-] (stereo not drawn)	1090
C/C=C(\NC(=O)CCCCCCCCCC)C(=O)O	19000
C=CCNCCCCC/C=C(\NC(=O)C1CC1(C)C)C(=O)O (stereo not drawn)	870

1: COC(=O)CSCCCCC/C=C(\NC(=O)C1CC1(C)C)C(=O)O (stereo not drawn)
2: C/C=C(\NC(=O)CCCCCCCCC(=O)O)C(=O)O
From the items above, decide which of 1 and 2 has the lower Ki reading. Field: selected label. Fill in the label of the entry you choose. 1

A: CC1(C)CC1C(=O)N/C(=C\CC(F)(F)F)C(=O)O (stereo not drawn)
B: CCCCCCCCC/C=C(\NC(=O)C1CC1(C)C)C(=O)O (stereo not drawn)
Compare reported Ki values for A and B . Which is lower? Answer format: the label of the selected item. B

----------
# Subject Of Test: Dipeptidase 1 (Sus scrofa)
# Method Notes: Inhibitory activity against beta-lactamase renal dipeptidase
pKi: −log10 of the molar value.
Measured Parameter: pKi

Compound	Measured Parameter	Reported Value
CC1(C)CC1C(=O)N/C(=C\CCCCCNCCP(=O)(O)O)C(=O)O (stereo unspecified)	pKi	6.24
CCN(CC)CCCCC/C=C(\NC(=O)C1CC1(C)C)C(=O)O (stereo unspecified)	pKi	6.07
CC1(C)CC1C(=O)N/C(=C\CCCCCSCC(N)C(=O)O)C(=O)O (stereo unspecified)	pKi	6.64
CC1(C)CC1C(=O)N/C(=C\CCCCCC/C=C(\NC(=O)C1CC1(C)C)C(=O)O)C(=O)O (stereo unspecified)	pKi	7.04
CC1(C)CC1C(=O)N/C(=C\CCCCC(=O)O)C(=O)O (stereo unspecified)	pKi	7.24

I: C/C=C(\NC(=O)C1CCCCC1)C(=O)O
II: CC1(C)CC1C(=O)N/C(=C\CCCCCCC[N+](C)(C)C)C(=O)[O-] (stereo unspecified)
Lab log: flag the item ( I or II ) with the smaller pKi figure. Refer to your chosen item by its label in the answer. I
(I: 4.82, II: 6.24)

P: C/C=C(\NC(=O)CCC(C)C)C(=O)O
Q: CC1(C)CC1C(=O)N/C(=C\CCCCCCC[N+](C)(C)Cc1ccccc1)C(=O)[O-] (stereo unspecified)
In terms of reported pKi, does P or Q have the smaller number? Give the label under which the chosen entry appears. P

----------
# Subject Of Test: Dipeptidase 1 (Sus scrofa)
# Sequence (P22412 whole entry): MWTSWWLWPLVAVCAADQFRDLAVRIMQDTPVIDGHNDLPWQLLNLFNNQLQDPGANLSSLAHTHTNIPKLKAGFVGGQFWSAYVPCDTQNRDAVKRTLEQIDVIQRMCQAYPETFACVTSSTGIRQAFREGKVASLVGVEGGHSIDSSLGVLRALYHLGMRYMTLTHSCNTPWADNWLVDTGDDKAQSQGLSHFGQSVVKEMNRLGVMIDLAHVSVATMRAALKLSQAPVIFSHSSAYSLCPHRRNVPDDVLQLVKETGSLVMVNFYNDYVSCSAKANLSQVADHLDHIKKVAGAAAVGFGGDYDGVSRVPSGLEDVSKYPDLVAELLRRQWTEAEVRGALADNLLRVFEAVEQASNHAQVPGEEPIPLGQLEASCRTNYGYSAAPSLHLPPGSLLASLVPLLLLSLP
# Method Notes: Inhibitory activity against beta-lactamase renal dipeptidase
pKi: −log10 of the molar value.
Measured Parameter: pKi

Molecule	Reported Value
CC1(C)CC1C(=O)N/C(=C\CCCCSc1ccccc1)C(=O)O (stereo not given)	7.00
C/C=C(\NC(=O)CSCC)C(=O)O	4.51
CC1(C)CC1C(=O)N/C(=C\CCCCBr)C(=O)O (stereo not given)	6.82

1: C/C=C(\NC(=O)CCCCCCCCCCC)C(=O)O
2: CNC(CSCCCC/C=C(\NC(=O)[C@H]1CC1(C)C)C(=O)O)C(=O)O (stereo not given in full)
Please indicate which item has the smaller measured pKi: 1 versus 2 Refer to your chosen item by its label in the answer. 1

----------
# Subject Of Test: Dipeptidase 1 (Sus scrofa)
# Sequence (P22412 whole entry): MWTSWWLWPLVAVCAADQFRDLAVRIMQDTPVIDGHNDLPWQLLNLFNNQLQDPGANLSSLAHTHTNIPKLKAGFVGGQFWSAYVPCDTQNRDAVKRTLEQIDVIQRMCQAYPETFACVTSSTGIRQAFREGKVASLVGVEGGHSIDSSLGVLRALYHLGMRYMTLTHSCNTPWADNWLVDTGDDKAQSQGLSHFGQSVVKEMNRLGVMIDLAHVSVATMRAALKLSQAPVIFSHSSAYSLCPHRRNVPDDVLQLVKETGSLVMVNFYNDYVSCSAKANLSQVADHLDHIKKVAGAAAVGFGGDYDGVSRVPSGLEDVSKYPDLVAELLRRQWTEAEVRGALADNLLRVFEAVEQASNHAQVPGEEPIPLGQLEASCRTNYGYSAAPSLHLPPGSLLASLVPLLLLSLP
# Method Notes: Inhibitory activity against beta-lactamase renal dipeptidase
Measured Parameter: Ki (µM)

Compound	Subject Of Test	Ki (µM)
CC1(C)CC1C(=O)N/C(=C\CCCCSCC(=O)C(=O)O)C(=O)O (configuration not stated)	Dipeptidase 1 (Sus scrofa)	0.16
CCCCC/C=C(\NC(=O)C1CC1(Cl)Cl)C(=O)O (configuration not stated)	Dipeptidase 1 (Sus scrofa)	0.06
C/C=C(\NC(=O)CC(C)CCCC(C)(C)O)C(=O)O (configuration not stated)	Dipeptidase 1 (Sus scrofa)	67
CN(C)CCCC/C=C(\NC(=O)C1CC1(C)C)C(=O)O (configuration not stated)	Dipeptidase 1 (Sus scrofa)	3.45
CC1(C)CC1C(=O)N/C(=C\CCCCC[N+](C)(C)CCO)C(=O)[O-] (configuration not stated)	Dipeptidase 1 (Sus scrofa)	0.91

a: CC1(C)CC1C(=O)N/C(=C\CCCCCNC=N)C(=O)O (configuration not stated)
b: CCCCC/C=C(/NC(=O)C1CC1(C)C)C(=O)O (configuration not stated)
c: CC1(C)CC1C(=O)N/C(=C\CCCSc1ncccc1O)C(=O)O (configuration not stated)
d: C=C(NC(=O)C1CC1(C)C)C(=O)O (configuration not stated)
e: CC1(C)CC1C(=O)N/C(=C\CCCBr)C(=O)O (configuration not stated)
# rank_down: sort by Ki, max first Reply: labels, ordered per the request. d, b, a, e, c

A: CC1(C)CC1C(=O)N/C(=C\C1CCCCC1)C(=O)O (configuration not stated)
B: C/C=C(\NC(=O)c1ccccc1)C(=O)O
C: C/C=C(\NC(=O)CCCc1cccs1)C(=O)O
D: CC1(C)CC1C(=O)N/C(=C\CCCCSc1ncccc1C(=O)O)C(=O)O (configuration not stated)
E: CC1(C)C[C@@H]1C(=O)N/C(=C\CCCCSC[C@H](N)C(=O)O)C(=O)O (stereo in doubt; 175) [CILASTATIN]
Order the 5 compounds from highest to lowest Ki. The reply should contain the labels ordered as requested. B, C, A, E, D

a: CN(CCCCC/C=C(\NC(=O)C1CC1(C)C)C(=O)O)CC(=O)O (configuration not stated)
b: C/C=C(\NC(=O)[C@@H]1C[C@@H]1C)C(=O)O
Returns the identifier with the smallest measured Ki among a and b . Reply with the label of the item you choose. a
(a: 0.29 µM, b: 12 µM)
